target: T1, Human B7H4 ECD (SV), splice variant, 10His_FLAG (human); experiment: Octet BLI, hIgG1-TM on Protein G (n = 4-7)
T1 construct: also called B7-H4-SV
value.kind: koff (s⁻¹)
One number for each entry, in s⁻¹.

koff in this record for ZY0EQD-E02 human IgG1-TM (antibody, V domains shown) VH: QVQLQQWGAGLLKPSETLSLTCAVYGGSFSGYYWNWIRQPPGKGLEWIGEINHSGSTSYNPSLKSRVTISVDTSKNQFSLKLSSVTAADTAVYYCARVLYNWNVDSWGQGTLVTVSS VL: DIQMTQSPSSLSASVGDRVTITCRASQDIRNDVGWYQQKPGKAPKRLIYAASRLQSGVPSRFSGSGSGTEFTLTISSLQPEDFATYYCLQHNSYPRTFGQGTKVEIK : 0.00269
